Reference for the values: patent US5103014A

test system: TxB2 synthesis (cyclooxygenase); experiment: Inhibition of synthesis of cyclooxygenase oxidation product TxB2 (rat polymorphonuclear leukocytes); type: cell-based; conditions: Leukocyte, rat PMN, A23187 10 μM, read-out: 50% Inhibitory Concentration (IC50)
IC50 listing for selected compounds.

| testSmiles | IC50 |
| --- | --- |
| O=S(=O)(Nc1cccc(OCc2csc(-c3ccccc3)n2)c1)C(F)(F)F | 1.7 µM |
| O=S(=O)(Nc1cccc(OCc2csc(-c3ccc(Cl)cc3)n2)c1)C(F)(F)F | 7.1 µM |
